The measurements presented in this section are drawn from patent US20220348590A1.

- system: human recombinant COX2 (hCOX2) (UniProt P35354)
- method: LCMS-based COX2 enzymatic inhibition assay (PGE2 quantification)
- Format: biochemical
- Design: COX2 2 minutes pge2/pge2d4 area ratio Avg; other: 2 minutes; readout pge2/pge2d4 area ratio; average; COX2 2 minutes pge2/pge2d4 area ratio Avg; LLE; average LLE; COX2 2 minutes pge2 area (counts) Avg; readout pge2 area (counts); other: 2 min; "ovine COX2 (oCOX2), human recombinant COX2 (hCOX2)"
- condition details: 2 minutes; readout pge2 area (counts); average LLE
- Source text: We have adapted a previously reported cyclooxygenase enzymatic assay utilizing LCMS quantification of PGE2 as the product of COX-1 and COX2 catalyzed conversion of arachidonic acid to evaluate the binding properties of newly synthesized ligands [Cao, 2011]. […] Using these enzymatic assays, we have evaluated>200 newly synthesized ligands against COX2 and >20 ligands against COX-1. […]
Catalogue of COX2 2 minutes pge2 area (counts) Avg. LLE values
Simply state the number, no unit and no words.

Worked cases, COX2 2 minutes pge2 area (counts) Avg. LLE given:
1. Cc1coc(CNc2cccc(-c3ccc(S(C)(=O)=O)cc3)n2)c1 [Compound 85]    3.951
2. CS(=O)(=O)c1ccc(-n2ccc3ccc(OCc4cccs4)nc32)cc1 [Compound 122]    2.325
3. CS(=O)(=O)c1ccc(-c2nc(OCc3cccs3)cc3ncccc23)cc1 [Compound 140]    2.75
4. CS(=O)(=O)c1ccc(-c2cccc(NCc3ccns3)n2)cc1 [Compound 87]    4.881
5. COc1ncc(OCc2ccoc2)nc1-c1ccc(S(C)(=O)=O)cc1 [Compound 22]    5.729

Which value of COX2 2 minutes pge2 area (counts) Avg. LLE has been reported for COc1ncc(NCc2cncs2)nc1-c1ccc(S(C)(=O)=O)cc1 [Compound 163] in the records?
4.597

Similarly, CS(=O)(=O)c1ccc(-c2cncc(OCC3CC3)n2)cc1 [Compound 273] ?
3.734

Similarly, CS(=O)(=O)c1ccc(-c2cnc3cn(Cc4cccs4)nc3n2)cc1 [Compound 288] ?
2.844

Similarly, CS(=O)(=O)c1ccc(-c2cncc(NCc3ccc(F)cc3)n2)cc1 [Compound 96] ?
4.897

Similarly, Cn1ccc(COc2cncc(-c3ccc(S(C)(=O)=O)cc3)n2)n1 [Compound 181] ?
5.2357

====

- system: human recombinant COX2 (hCOX2) (UniProt P35354)
- method: LCMS-based COX2 enzymatic inhibition assay (PGE2 quantification)
- Type: biochemical
- Set-up: COX2 2 minutes pge2/pge2d4 area ratio Avg; other: 2 minutes; readout pge2/pge2d4 area ratio; average; COX2 2 minutes pge2/pge2d4 area ratio Avg; LLE; average LLE; COX2 2 minutes pge2 area (counts) Avg; readout pge2 area (counts); other: 2 min; "ovine COX2 (oCOX2), human recombinant COX2 (hCOX2)"
- condition details: 10 minutes; readout pge2 area (counts); average; read-out: COX2 10 minutes pge2 area (counts) Avg. IC50
readout type: pIC50
As a rule, pIC50 stands for the negative log10 of the concentration, concentration in M.

1. COc1cc(NCc2cccs2)cc(-c2ccc(S(C)(=O)=O)cc2)n1    8.60
2. CS(=O)(=O)c1ccc(-c2cc(C(F)(F)F)nc(Oc3ccc(F)cc3)n2)cc1    8.03
3. CS(=O)(=O)c1ccc(-c2cncc(NCc3cccs3)n2)cc1    8.25
4. CS(=O)(=O)c1ccc(-c2cncc(NCc3ccc(F)nc3)n2)cc1    6.45
5. CCCCOc1cncc(-c2ccc(S(C)(=O)=O)cc2)n1    6.59
6. CN(C)c1cncc(-c2ccc(S(C)(=O)=O)cc2)n1    5.43
7. COc1cc(NCc2cccs2)nc(-c2ccc(S(C)(=O)=O)cc2)c1    8.30
8. CS(=O)(=O)c1ccc(-c2cnc3ncn(Cc4cccs4)c3n2)cc1    6.95

Form field: pIC50 recorded for CN(Cc1cccs1)c1cncc(-c2ccc(S(C)(=O)=O)cc2)n1 with human recombinant COX2 (hCOX2) (UniProt P35354) (enter value)
8.45
